SYSTEM: T1, human immunoglobulin E (hIgE) (human, UniProt P01854-1 1-428)
T1 construct: also called human IgE; Native IgE (Abcam)
T1 sequence (P01854 whole entry): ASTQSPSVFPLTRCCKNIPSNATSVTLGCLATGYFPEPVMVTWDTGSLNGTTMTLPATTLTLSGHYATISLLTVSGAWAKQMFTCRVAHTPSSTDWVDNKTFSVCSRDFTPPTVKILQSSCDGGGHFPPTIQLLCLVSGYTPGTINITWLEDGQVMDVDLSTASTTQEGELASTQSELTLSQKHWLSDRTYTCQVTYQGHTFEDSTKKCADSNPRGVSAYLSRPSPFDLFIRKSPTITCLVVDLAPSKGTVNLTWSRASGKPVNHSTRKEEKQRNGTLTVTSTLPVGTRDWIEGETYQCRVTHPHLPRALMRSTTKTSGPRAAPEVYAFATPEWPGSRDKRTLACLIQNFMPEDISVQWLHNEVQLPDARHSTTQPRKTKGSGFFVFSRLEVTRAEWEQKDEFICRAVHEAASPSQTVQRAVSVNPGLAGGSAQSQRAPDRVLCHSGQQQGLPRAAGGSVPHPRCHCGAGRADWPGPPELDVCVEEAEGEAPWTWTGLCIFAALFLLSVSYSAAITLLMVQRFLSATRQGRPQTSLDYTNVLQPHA
PROCEDURE DETAILS: SPR (Biacore), pH 7.4
Decision: koff beneath 0.002 s⁻¹ gives 1 (yes); koff meeting or exceeding 0.002 s⁻¹ gives 0 (no).

# check: koff < 0.002 s⁻¹ for Oma VH15W100b - VL3D28H (antibody, V domains shown, also called Oma VH15W100b VL3D25H) VH: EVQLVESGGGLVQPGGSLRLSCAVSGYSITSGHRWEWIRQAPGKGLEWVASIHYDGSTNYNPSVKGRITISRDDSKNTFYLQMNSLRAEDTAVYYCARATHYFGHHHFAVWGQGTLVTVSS VL: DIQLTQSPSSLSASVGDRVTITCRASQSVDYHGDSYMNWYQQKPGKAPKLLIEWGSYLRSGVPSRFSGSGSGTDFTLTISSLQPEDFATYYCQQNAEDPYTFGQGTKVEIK
1 (yes)

Note, next up: Oma VH15W100b - VL3S31H (antibody, V domains shown) VH: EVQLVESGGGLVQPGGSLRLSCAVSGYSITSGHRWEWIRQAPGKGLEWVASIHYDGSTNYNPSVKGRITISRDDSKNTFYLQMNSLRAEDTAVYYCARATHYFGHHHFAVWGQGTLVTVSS VL: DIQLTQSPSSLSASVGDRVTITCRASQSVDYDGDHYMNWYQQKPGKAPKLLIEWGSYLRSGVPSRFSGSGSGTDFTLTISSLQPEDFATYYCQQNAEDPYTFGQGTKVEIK
0 (no)

Note, next up: OmaVH15G55HW100b - VL3S31H (antibody, V domains shown) VH: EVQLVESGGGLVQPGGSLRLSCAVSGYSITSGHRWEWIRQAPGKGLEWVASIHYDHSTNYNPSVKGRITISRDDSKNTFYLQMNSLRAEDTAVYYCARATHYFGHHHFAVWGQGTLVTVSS VL: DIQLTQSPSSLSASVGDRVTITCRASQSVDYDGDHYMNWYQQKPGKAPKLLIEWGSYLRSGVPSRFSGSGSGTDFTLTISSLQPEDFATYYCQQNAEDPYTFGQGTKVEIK
0 (no)

Note, next up: OmaVH15G55HW100b - VL3D28HS31H (antibody, V domains shown, human IgG1) VH: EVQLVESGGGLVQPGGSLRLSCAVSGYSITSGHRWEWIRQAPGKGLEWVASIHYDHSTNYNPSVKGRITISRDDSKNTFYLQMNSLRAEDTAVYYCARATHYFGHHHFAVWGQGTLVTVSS VL: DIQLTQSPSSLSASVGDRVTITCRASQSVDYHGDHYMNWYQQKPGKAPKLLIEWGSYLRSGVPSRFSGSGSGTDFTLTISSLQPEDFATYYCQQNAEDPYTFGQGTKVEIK
0 (no)

Note, next up: OMA VH15 - VL3D28H (antibody, V domains shown, also called OMA VH15 VL3D25H) VH: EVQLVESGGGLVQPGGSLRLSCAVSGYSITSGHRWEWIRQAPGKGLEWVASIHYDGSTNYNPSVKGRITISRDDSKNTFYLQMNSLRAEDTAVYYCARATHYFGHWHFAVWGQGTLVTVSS VL: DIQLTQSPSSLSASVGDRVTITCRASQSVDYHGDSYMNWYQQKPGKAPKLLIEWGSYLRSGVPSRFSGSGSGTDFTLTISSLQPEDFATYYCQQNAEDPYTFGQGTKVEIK
1 (yes)
